# System: MS2 coat protein
# Assay: apparent KD of MS2 coat protein; designed switch direction (-1 OFF switch, 1 ON switch): -1; higher = weaker reporter binding
# Measurement parameters: input ligand: FMN 200 uM
Would you mind classing the entries by apparent KD of MS2 coat protein? Ranges: c1 = under 30 nM, c2 = from 30 nM up to 70 nM, c3 = 70 nM and over

Example entries begin here.
- Item sequence: "CUUGACUGAGGAUAUUGUGCUGCUGACAUGAGGAUCACCCAUGUAUGUUAACUCGGCCGUCGAGAAGGCAGAAAGG [BotMod 19 - Jieux - Exclusion 5] (Eterna round: R97, puzzle: Exclusion 5)"
  Discrete label: "c1"
- Item sequence: "CUACCCUGAGGAUAUCCACCGUGAUACAUGAGGAUCACCCAUGUUAAUGCCUGAGUUCCCGGAGAAGGCAGAUUCC [Megrez2] (Eterna round: R97, puzzle: Exclusion 5)"
  Discrete label: "c1"
- Item sequence: "AAAUUGGUAGAGGAUAUCGCACAGGAAACACUGCGAGAAGGCUGCACAUGAGGAUCACCCAUGUUUAGUUGCGA [EX6 #37] (Eterna round: R97, puzzle: Exclusion 6)"
  Discrete label: "c1"
- Item sequence: "CCGUGCAGGCUGCGGUCCUACAUGAGGAUCACCCAUGUGGUCCGGUGGCGUGGGUCGCCGGACUUGGCUCGUCUUGU [salish99_S_TOV1_R5_016] (Eterna round: R97, puzzle: Sensor, turn-off variant 1)"
  Discrete label: "c3"
- Item sequence: "CUUUUGUGAGGAUAUUAGUAGUAAAUAAAUAAAUUUACUACUGAGAAGGCACAUGAGGAUCACCCAUGUUCCUC [salish99_ex4_r3_060] (Eterna round: R96, puzzle: Exclusion 4)"
  Discrete label: "c3"
- Item sequence: "AAGAAUUAGUCAGGAUAUAGCGGCCAAGAACUACUAGAAGGGAUUAGACAUGAGGAUCACCCAUGUGAUCUUUUUGUAGGGACG [Eternabot solution 15] (Eterna round: R96, puzzle: Exclusion NG 1)"
  Discrete label: "c2"
- Item sequence: "AAGUCGACGGUGAGGAUAUAGGUUGAACGACAGAUCUAGAAGGUACAUGAGGAUCACCCAUGUGGGUAACGUCG [Brourd's EX4 #36] (Eterna round: R97, puzzle: Brourd's mod of Exclusion 4)"
  Discrete label: "c2"
- Item sequence: "GUUUACAAGCUAAGAUCCUACAUGAGGAUCACCCAUGUGGUCCGGUGACGUGAGUCACCGGACUUAGCUCGUCUUGG [salish99_S_TOV1_R5_090] (Eterna round: R97, puzzle: Sensor, turn-off variant 1)"
  Discrete label: "c2"

As a next step, examine the sequence that follows.
Kindly state the category for this sequence: GAACUGAAGCUUUGCUUUAGUCGUACAUGAGGAUCACCCAUGUAGGAUAUGGUAGGCUUUGCUUACUAGAAGGACAGAGUGAUC [Mat - Exclusion NG 3 - Mod of JL - D68] (Eterna round: R96, puzzle: Exclusion NG 3)
c2

* * *

# System: MS2 coat protein
# Assay: apparent KD of MS2 coat protein; higher = weaker reporter binding
# Measurement parameters: Eterna round: R107; input ligand: arginine 13.2 mM
For each record, write down the corresponding apparent KD of MS2 coat protein.
One number for each entry, in nM.

- Item sequence: "GGGAAUGAACGUGAUACCAGAGAUCCGGUCUCCGUCAAUAUACAUGAGGAUCACCCAUGUCUCCCUUGGCAGCACCGUCAUCGGG [Exclusion Theophylline B GF 28]"
  apparent KD of MS2 coat protein, nM: 14.3

For each entry beneath this line, provide reported apparent KD of MS2 coat protein.
1. UAGACGGCCGGAAGGAGCGGUACAUGAGGAUCACCCAUGUAUCUCUGGGCAUCCGUAGAGUGCCAGGUAGGUCGCCGGUUGCGGG [XArg-B22]
2. GAAGAGACCUCGGCCGCCACUCGCCAUGAGGAUCUCCCAUGUAACAUGAGGAUCACCCAUGUACAGAGGACCGGGAGGUCCUAGU [Same State Tryptophan B GF 14]
3. AUUGACAUGAGGAUCACCCAUGUAUCCGAAGGAGCGGCAGAUGUGCCAGGUAGGUCGCGGGUGAAAGAGACAUCGUAGGGUGUCG [Same State - Arginine A / B [only NuPack]]
4. GGGUACAUCGCGGCCGCCACUUUUGUAAAUACAUGAGGAUCACCCAUGUCGAUGGAGACAUCGGUGAGGACCGGGUGAUGUACCG
5. AUAUGAUCAUGUGAUACCAGAAAUGGUAGUCUUCACUGGAUUACAUGAGGAUCACCCAUGUUCCCUUGGCAGCAUAUGAUCAUAU [#03 Exclusion-TheophyllineB]

[12.3, 12.8, 73.9, 196, 31.7]

For each entry beneath this line, provide reported apparent KD of MS2 coat protein.
1. GCCAUCGGCGAAAGCCGAUGGUAUACAGAAGGAGCGCACGAAAGUGCAGGUAGGUCGCUGAACAUGAGGAUCACCCAUGUAAUAA [#29 Same State - Arginine A]
2. UAAUGCAGGUCGGCCGCCACUACAACAUGAGGAUCACCCAUGUACAUGUUGUAGUACGGUAUGAGUAGGACCGGGACCUGCAUAA [Trp-Ms2-M'-T'-(MT)'_Design1]

19.6
213

For each entry beneath this line, provide reported apparent KD of MS2 coat protein.
1. ACACAUGAGGAUCACCCAUGUUGCAUAGAUACCAGAUAACGUGAGAUCCCUUGGCAGCUAACUGCAUGAACUUGACAUGCAUCAU [Same State Theophylline A 2]
2. UGUUUGGUGCGCGAGUGUUGGAUAAAUGAUACCAGUGUAGAUGUACGCCCUUGGCAGCGUAUCCGAACAUGAGGAUCACCCAUGU [5.aB]
3. UAUAUAGAAGGAAGUCAUAUAGAUGCAGAAGGAGCGUAGGAAACUACAGGUAGGUCGCUGAGGUACAUGAGGAUCACCCAUGUAG [SSArg A #15 Slice of Pi]
4. AAUAACAUGAGGAUCACCCAUGUAAAAGAUACCAGAUGCAUGAUGAUCCCUUGGCAGCUUAACGCUGAUUGAUUACAAUCAGCGA

1: 44.2; 2: 26.7; 3: 24.7; 4: 36.5

* * *

# System: MS2 coat protein
# Assay: apparent KD of MS2 coat protein; designed switch direction (-1 OFF switch, 1 ON switch): 1; higher = weaker reporter binding
# Measurement parameters: input ligand: FMN 200 uM
For each record, write down the corresponding apparent KD of MS2 coat protein.
Numbers only, in nM.

See these solved cases before continuing.
- Item sequence: "CGAGAGUGCGUAGGAUAUCCGAAAGGAAGUGUAGGAGAAGGGCGGAACGCUCAUCGAAAACAUGAGGAUCACCCAUGUACAAAU [PowerStrip SSNG 1.17] (Eterna round: R96, puzzle: Same State NG 1)"
  Target of assay: "MS2 coat protein"
  Result unit: "nM"
  Numeric value: 24.7
- Item sequence: "AGCUAAAACGAAGGAUAUACAAACAUGAGGAUCACCCAUGUAUACAUGGUUUGUUGUGACUACAUGUAGAAGGUCGUACUAACA [SameState NG2 #17] (Eterna round: R96, puzzle: Same State NG 2)"
  Target of assay: "MS2 coat protein"
  Result unit: "nM"
  Numeric value: 388
- Item sequence: "GCCAGUGCGAAACUCACAUGAGGAUCACCCAUGUGCGUUGAGUAGGAUAUCCGGCUACUCGAGGCGGAGAAGGACUGGGUACUG [Eternabot solution 14] (Eterna round: R96, puzzle: Same State NG 3)"
  Target of assay: "MS2 coat protein"
  Result unit: "nM"
  Numeric value: 17.4

For each entry beneath this line, provide reported apparent KD of MS2 coat protein.
1. GUCAGCGAUUGAGGAUAUCACGUCGAAUAGACGUGAGAAGGCGAUCAUAACAUGAGGAUCACCCAUGUAUUACAUGAAGCUGAC [SSNG1/5-A1] (Eterna round: R96, puzzle: Same State NG 1)
2. UUGUUUUGAAAUUAACAUGAGGAUCACCCAUGUCGUGAGACAGAGGAUAUACAGGAAUGUAGGUAGUAGAAGGCUGUUUAGUGU [JR_SSNG3_Sub099] (Eterna round: R96, puzzle: Same State NG 3)

1: 15.2; 2: 99.4

* * *

# System: MS2 coat protein
# Assay: apparent KD of MS2 coat protein, switch ON state; designed switch direction (-1 OFF switch, 1 ON switch): -1; higher = weaker reporter binding
# Measurement parameters: FMN input: 0 or 200 uM; Eterna round: R93 (includes R88 designs)
Decide using apparent KD of MS2 coat protein: a value greater than or equal to 40 nM is 1.0, a smaller one is 0.0.

- Item sequence: "AAUUCACAUGAGGAUCACCCAUGUAAGGAUAUCGAAAAAAAACUAAACAAAAAACAAACGAGAAGGUACAAAAA [Exclusion 1 design 5]"
  Discrete label: 0.0

As a next step, examine the sequence that follows.
// inclusive: apparent KD of MS2 coat protein at least 40 nM? input: AACAGUACAGGAUAUACAUGAGGAUCACCCAUGUGACAAUUAAGUGGCGUACCACAGUGUAGAAGGGUACUGGA [Ruby 84]
1.0

Where do the numbers come from? From the supplement of paper PMC9170038.
